The origin of these recorded values is patent US20050192279A1.

tested-on: α4β1 (Homo sapiens, UniProt P05556+P13612)
Construct: Ramos Cell Adhesion Assay (α4β1 Mediated Adhesion/VCAM-1); endogenous in cells; host or cells: Ramos cells
Sequence (P13612 34-1032): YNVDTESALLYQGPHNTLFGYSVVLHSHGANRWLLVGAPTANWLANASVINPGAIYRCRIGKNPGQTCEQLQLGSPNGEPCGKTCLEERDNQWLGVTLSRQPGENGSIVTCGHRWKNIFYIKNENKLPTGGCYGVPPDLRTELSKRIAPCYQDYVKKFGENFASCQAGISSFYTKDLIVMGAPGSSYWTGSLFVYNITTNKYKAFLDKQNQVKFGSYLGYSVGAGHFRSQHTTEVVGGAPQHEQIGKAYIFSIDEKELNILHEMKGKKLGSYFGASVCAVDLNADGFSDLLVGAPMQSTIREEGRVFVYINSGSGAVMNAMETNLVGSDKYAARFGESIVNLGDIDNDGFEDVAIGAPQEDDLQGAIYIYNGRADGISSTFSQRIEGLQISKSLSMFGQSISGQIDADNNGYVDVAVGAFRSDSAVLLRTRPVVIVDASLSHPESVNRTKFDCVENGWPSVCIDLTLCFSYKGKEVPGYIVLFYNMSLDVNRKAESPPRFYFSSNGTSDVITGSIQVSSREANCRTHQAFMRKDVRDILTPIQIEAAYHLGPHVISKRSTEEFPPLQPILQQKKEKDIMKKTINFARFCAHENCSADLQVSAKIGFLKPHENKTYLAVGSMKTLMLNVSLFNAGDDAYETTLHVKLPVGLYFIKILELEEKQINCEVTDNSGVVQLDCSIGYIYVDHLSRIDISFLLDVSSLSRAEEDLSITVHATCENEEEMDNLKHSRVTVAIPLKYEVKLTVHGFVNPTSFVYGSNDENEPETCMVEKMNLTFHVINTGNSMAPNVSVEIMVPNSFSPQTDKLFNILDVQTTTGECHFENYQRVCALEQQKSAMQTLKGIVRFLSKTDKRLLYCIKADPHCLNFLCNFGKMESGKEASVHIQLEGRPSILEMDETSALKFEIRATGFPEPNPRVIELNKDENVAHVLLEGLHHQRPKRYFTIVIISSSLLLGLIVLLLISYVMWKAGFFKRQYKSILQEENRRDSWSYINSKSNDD
Sequence (P05556 21-798): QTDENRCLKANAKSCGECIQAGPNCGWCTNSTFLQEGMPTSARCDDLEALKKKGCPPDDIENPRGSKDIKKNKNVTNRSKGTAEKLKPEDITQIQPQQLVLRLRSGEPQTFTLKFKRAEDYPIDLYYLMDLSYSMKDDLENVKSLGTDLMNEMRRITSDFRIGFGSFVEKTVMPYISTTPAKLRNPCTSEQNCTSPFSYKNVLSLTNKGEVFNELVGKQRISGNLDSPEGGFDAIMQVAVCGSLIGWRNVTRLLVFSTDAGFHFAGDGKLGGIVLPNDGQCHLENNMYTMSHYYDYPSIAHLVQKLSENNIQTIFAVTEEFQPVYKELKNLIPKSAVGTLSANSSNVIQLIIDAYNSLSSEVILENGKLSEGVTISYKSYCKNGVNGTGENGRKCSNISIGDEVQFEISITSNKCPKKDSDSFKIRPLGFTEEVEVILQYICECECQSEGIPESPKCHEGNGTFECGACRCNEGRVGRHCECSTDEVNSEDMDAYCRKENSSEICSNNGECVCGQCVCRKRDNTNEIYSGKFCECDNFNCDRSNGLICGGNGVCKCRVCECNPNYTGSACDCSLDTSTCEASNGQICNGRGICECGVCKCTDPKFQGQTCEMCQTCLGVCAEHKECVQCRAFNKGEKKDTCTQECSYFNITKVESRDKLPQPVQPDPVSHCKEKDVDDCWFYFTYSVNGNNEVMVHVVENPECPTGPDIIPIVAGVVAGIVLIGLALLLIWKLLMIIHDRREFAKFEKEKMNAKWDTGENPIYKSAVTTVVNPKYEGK
assay-remarks: Ramos Cell Adhesion Assay (α4β1 Mediated Adhesion/VCAM-1)
Format: cell-based
stated-conditions: Ramos cell adhesion to hVCAM-1; read-out: α4β1 IC50
Measured IC50 of individual entries
Give a bare numeral; the unit nM is implied.

Example compounds with recorded IC50:
>>> reported_value("COc1cnn(C)c(=O)c1-c1ccc(C[C@H](NC(=O)C2(NC3CCCCC3)CCOCC2)C(=O)O)cc1")
3840
>>> reported_value("COc1cnn(C)c(=O)c1-c1ccc(C[C@H](NC(=O)C2(N)CCOCC2)C(=O)O)cc1")
656

Please examine the following record next.
// field: IC50; key: Cn1ncc(OCCN2CCOCC2)c(-c2ccc(C[C@H](NC(=O)c3c(Cl)cccc3Cl)C(=O)O)cc2)c1=O ; value = 65
